# Tested on: OVCAR-5 ovarian
# PROTOCOL DESCRIPTION: NCI-60 one-dose screen, 48 h
# CONDITION INFO: 10 µM
This is part of a sample that, as a whole, favours compounds with a hit. Of some 83,000 tested, about 20% had one in any assay. The source made the active and inactive calls. The calls were made as follows: active = growth percent below 10; inactive = the rest.
Lab note: assign the record to one of True (active), False (inactive)

Please review the following examples before continuing.
Cc1ccc(/C(N)=N/c2sc(-c3ccccc3)nc2-c2ccccc2)cc1 : False
Cc1ccc(/C(CSc2nnc(-c3c[nH]c4ccccc34)n2-c2ccccc2)=N/O)cc1 : True

Would you kindly look at the next entry?
Entry CCCSc1nc(NC2CC2)c(C#N)c(-c2ccc(OC)cc2)n1 : call = ? False

###

# System: A498 renal
# PROTOCOL DESCRIPTION: NCI-60 one-dose screen, 48 h
# CONDITION INFO: 10 µM
# Protocol: Growth inhibition of the A498 human tumor cell line is measured as a screen for anti-cancer activity. Cells are grown in 96 well plates and exposed to the test compound for 48 hours. Compounds are tested at a single concentration, which is 10^-5 M for most compounds. The reported endpoint is percent growth (GI% or GIPRCNT), where numbers from 0 - 100% represent growth inhibition, and numbers from -100% - 0 represent cell death. For example, a value of 40 represents 60% growth inhibition. […]
This is part of a sample that, as a whole, favours compounds with a hit. Of some 83,000 tested, about 20% had one in any assay. Activity calls are given as the source filed them. The calls were made as follows: active = growth percent below 10; inactive = the rest.
Lab note: assign the record to one of active, inactive

Please review the following examples before continuing.
Cc1cc(C)nc(NS(=O)(=O)c2ccc(N/C(N)=N/c3nccc(-c4cccs4)n3)cc2)n1 : inactive
COc1ccc(C(=O)/C=C/c2cc(C(F)(F)F)cc(C(F)(F)F)c2)cc1S(N)(=O)=O : active
Cc1ccc2nc(-c3ccc(-c4nnc(SCC(=O)Nc5ccc(Cl)cc5)o4)cc3)[nH]c2c1 : inactive
C/C(=N\N=C\c1ccc(N(C)C)cc1)c1ccc2c(c1)Nc1ccccc1S2 : inactive
S=c1nc(-c2ccccc2)cc(-c2cc3ccccc3nc2Cl)[nH]1 : inactive

Entry COc1ccc(-c2cc(C(=O)N=Nc3c(O)[nH]c4ccc(Br)cc34)c3ccccc3n2)cc1 : call = ? inactive

Entry O=C1CCC(N2Cc3c(NCc4ccc(-c5ccccc5)cc4)cccc3C2=O)C(=O)N1 (centres undefined) : call = ? inactive

Entry O=C1Nc2cc(Cl)ccc2/C1=C/c1cccc(OCc2ccccc2)c1 : call = ? inactive

Entry O=C(CNc1nc(-c2ccccc2)cs1)Nc1ccc(Cl)cc1 : call = ? active

Entry CN1CCN(c2ccc(Nc3nc(NCCCNC(=O)c4ccc(F)cc4)c4sccc4n3)cc2)CC1 : call = ? inactive

Entry N#Cc1c(NC(=O)c2ccc(C(F)(F)F)c(Cl)c2)sc2c1CCC(=O)C2 : call = ? inactive

Entry CCNCCCn1c2c(c3cc(OC)c(OC)cc3c1=O)C(=O)c1cc3c(nc1-2)OCO3 : call = ? inactive

Entry O=C(NO)c1ccc(CNC(=O)[C@H]2Cc3c([nH]c4ccccc34)[C@H](c3ccccc3)N2)cc1 : call = ? inactive

Entry Cc1ccc(-c2cc(-c3cc4ccccc4nc3Cl)[nH]c(=O)n2)cc1 : call = ? inactive

Entry COc1ccc(C(=O)Nc2ccc(-c3ccc4c(c3)NC(=O)/C4=C\c3ccc[nH]3)cc2)cc1 : call = ? inactive

Entry CC1(C)CC[C@]2(C(=O)N3CCOCC3)CC[C@]3(C)C(=CC[C@@H]4[C@@]5(C)CC[C@H](NCO)C(C)(C)[C@@H]5CC[C@]43C)[C@H]2C1 : call = ? active

Entry CC1(C)CC[C@]2(C(=O)Nc3ccccc3)CC[C@]3(C)C(=CC[C@@H]4[C@@]5(C)CC[C@H](N)C(C)(C)[C@@H]5CC[C@]43C)[C@H]2C1 : call = ? inactive

Entry O=C1CCC(N2Cc3c(C#CCCCNC(=O)c4ccc(NC(=O)[C@@H]5NC6(CCCCC6)[C@@]6(C(=O)Nc7cc(Cl)ccc76)[C@H]5c5cccc(Cl)c5F)cc4)cccc3C2=O)C(=O)N1 (some centres undefined) : call = ? inactive

Entry COc1cc2c(c(OC)c1OC)C(=O)CC(c1cccc(NC(=O)c3cccc(N)c3)c1)O2 (centres undefined) : call = ? inactive

###

# System: UACC-257 melanoma
# PROTOCOL DESCRIPTION: NCI-60 one-dose screen, 48 h
# CONDITION INFO: 10 µM
Compounds without any hit were thinned out: in the full panel of roughly 83,000, 20% have a hit. Calls of active or inactive are those of the source. Rule for the calls: active = growth percent below 10; inactive = the rest.
Lab note: assign the record to one of active, inactive

Please review the following examples before continuing.
C#Cc1ccc(S(=O)(=O)Nc2cccc(-c3csc(NC(C)=O)n3)c2)cc1 : inactive
CCCCSc1nc(Nc2ccc(/C(C)=N/NC(N)=S)cc2)c(C#N)c(-c2ccc(F)cc2)n1 : inactive
Cc1cccc(-c2nc(Nc3ccccc3C(=O)O)c3ccccc3n2)c1 : inactive
O=C(NO)c1ccc(-c2nc3ccc4[nH]ncc4c3c3c2CCCC3)cc1 : active
CC1(c2ccccc2)NC(=O)N(CC(=O)Nc2ccc(C(=O)/C=C/c3ccc(Cl)cc3)cc2)C1=O (stereo not given) : inactive
N#Cc1ccc(-c2nn(-c3ccc(C(=O)O)cc3)cc2CNc2ccc(Oc3ccccc3)cc2)cc1 : inactive

Entry O=C(CSc1nnc(-c2c[nH]c3ccccc23)n1-c1ccccc1)Nc1ccc(C(=O)/C=C/c2ccccc2Cl)cc1 : call = ? inactive

Entry Cc1ccc(/C(N)=N/c2sc(-c3ccccc3)nc2-c2ccccc2)cc1 : call = ? inactive

Entry CC(=O)Nc1ccc(-c2cn(-c3cccc(C(=O)Nc4ccc(Cl)c(C(F)(F)F)c4)c3)nn2)cn1 : call = ? active

Entry COc1ccc2c(c1)N=C(C(=O)O)/C2=C/c1sc(Nc2ccc(O)cc2)nc1O : call = ? inactive

Entry CCOC(=O)C1NN(c2ccc(S(N)(=O)=O)cc2)c2nc3nc(-c4cccs4)cc(-c4cccs4)c3c(=O)n21 (stereo not given) : call = ? inactive

Entry Cn1cc(-c2cc(N)n3nc(-c4c[nH]c5ccc(Br)cc45)cc3n2)c2cccnc21 : call = ? active

Entry COc1cc(/C=C/C(=O)c2ccc(NC(=O)CN3C(=O)NC(C)(c4ccccc4)C3=O)cc2)cc(OC)c1OC (stereo not given) : call = ? inactive

Entry OCCCNc1oc(-c2ccccc2)nc1[P+](c1ccccc1)(c1ccccc1)c1ccccc1 : call = ? active

Entry O=C1Nc2ccc(F)cc2/C1=C/c1cccc(OCc2ccccc2)c1 : call = ? inactive

###

# System: OVCAR-5 ovarian
# PROTOCOL DESCRIPTION: NCI-60 one-dose screen, 48 h (100 = growth as untreated, 0 = no growth, -100 = all killed)
# CONDITION INFO: 10 µM
Compounds without any hit were thinned out: in the full panel of roughly 83,000, 20% have a hit.
Label 1.0 for high-side growth (at or above 80%) and 0.0 for low-side growth (below it).

Please review the following examples before continuing.
Cn1cc(-c2cc(N)n3nc(-c4c[nH]c5ccc(Br)cc45)cc3n2)c2cccnc21 : 0.0
N#Cc1ccc(-c2nn(-c3ccc(C(=O)O)cc3)cc2CNc2cc(Cl)cc(Cl)c2)cc1 : 1.0
COc1cc2c(c(OC)c1OC)C(=O)CC(c1cccc(NC(=O)c3cccc(N)c3)c1)O2 (stereo not given) : 1.0
COc1ccc2[nH]c(=O)c(CSc3ccc(Nc4nccc(-c5ccc(Cl)cc5)n4)cc3)cc2c1 : 1.0

Hi team, for CN1CCc2c(sc3ncnc(N/N=C/c4cn(-c5ccccc5)nc4-c4ccc(Cl)cc4)c23)C1 , is the recorded growth at or above 80%? 0.0

###

# System: SF-268 CNS
# PROTOCOL DESCRIPTION: NCI-60 one-dose screen, 48 h (100 = growth as untreated, 0 = no growth, -100 = all killed)
# CONDITION INFO: 10 µM
The panel holds about 83,000 compounds, 20% with a hit somewhere; the sample as a whole holds those more often.
MEASUREMENT LABEL: growth (%)
Numbers only, in %.

Look over these answered cases.
CCCS(=O)(=O)c1oc(-c2ccc(F)cc2)nc1S(=O)(=O)c1ccc(F)cc1 : 52.2
CC(=O)C1=C(C)NC(SCC(=O)Nc2ccc(S(=O)(=O)Nc3cc(C)on3)cc2)=NC1c1ccccc1 (centres undefined) : 107
Nc1nnc(-c2c[nH]c3ccc(F)cc23)c(-c2c[nH]c3ncccc23)n1 : 80.2

Here is the next item to consider.
State recorded growth with SF-268 CNS, entry O=C(Nc1ccccc1)Nc1nc2ccccc2s1 , no comment. 111

###

# Tested on: UO-31 renal
# PROTOCOL DESCRIPTION: NCI-60 one-dose screen, 48 h
# CONDITION INFO: 10 µM
About 83,000 compounds went through this panel and 20% of them were active in at least one assay; those are over-represented in the sample as a whole. The source made the active and inactive calls. Rule for the calls: active = growth percent below 10; inactive = the rest.
Lab note: assign the record to one of TRUE = active, FALSE = inactive

C=C1CCC2C3(C)COC(c4cc(F)cc(F)c4)OC3CCC2(C)C1C/C=C1/C(=O)OCC1O (stereo not drawn) : TRUE
CS(=O)(=O)Nc1ccc(-c2ccc3c(c2)ncn3-c2ccc(NC(=O)Nc3ccc(Cl)c(C(F)(F)F)c3)cc2)cc1 : TRUE

Entry COc1ccc(OC)c(/C=N/NC(=O)c2ccc3nc(-c4ccc(Cl)cc4)[nH]c3c2)c1 : call = ? FALSE
